The measured values listed here are drawn from PubChem BioAssay (NCI).

Experiment: NCI Yeast Anticancer Drug Screen. Data for the mec2-1 strain (AID 157)
Conditions: S. cerevisiae mec2-1 strain, at 50.0 µM
The panel holds about 79,000 compounds, 15% with a hit somewhere; the sample as a whole holds those more often. The source made the active and inactive calls. Rule as the data show it: active = growth inhibition above about 70%; inactive = the rest.
Classes used: active, inactive

{"columns": ["molecule", "class.assignment"],
 "data": [
  ["CCCCOCCOC(=O)C(C)O (centres undefined)", "inactive"],
  ["O=C1NC(=S)S/C1=C\\c1ccc2c(c1)OCO2", "inactive"],
  ["COC(=O)c1cc([O-])c2sc(C)c(C)[n+]2n1", "inactive"],
  ["CN(C)CC(O)c1ccc(Cl)c2ccccc12 (centres undefined)", "inactive"],
  ["CCC[CH2][Sn]([CH2]CCC)([O]C(=O)c1cccc(F)c1F)[O][Sn]([CH2]CCC)([CH2]CCC)[O]C(=O)c1cccc(F)c1F", "active"],
  ["CC(C(=O)O)C(=O)NNc1ccccc1 (centres undefined)", "inactive"],
  ["O=C1C2CCC(C2)C12CC1(c3ccccc3)C(=O)c3ccccc3N1O2 (centres undefined)", "inactive"],
  ["Cc1ccccc1C(=O)N(C(C)C)C(C)C", "inactive"],
  ["CCC(CC)OCc1ccccc1", "inactive"],
  ["CCNCc1cc(Nc2cc(C)nc(/N=C(\\N)Nc3ccc(Cl)c(Cl)c3)n2)ccc1OC", "active"],
  ["CC(=O)SC12CCCN1C(=O)C1(SC(C)=O)CCCN1C2=O (centres undefined)", "inactive"],
  ["CC12CCC(=O)C=C1CCC1C2C(=O)CC2(C)C1CCC2(O)C(=O)Cn1c(=O)cc[nH]c1=O (centres undefined)", "inactive"],
  ["BrC1CC2CC1C1C2CC2OC21 (centres undefined)", "inactive"],
  ["O=S(=O)(c1cnccc1N1CCN(CCO)CC1)N1CCCC1", "inactive"],
  ["O=C(O)c1cc(=O)[nH]c2ccccc12", "inactive"],
  ["O=c1[nH]cnc2c1cnn2-c1ccccc1", "inactive"],
  ["C[N+](C)([O-])CCNC(=O)c1cccc2cc3ccccc3nc12", "inactive"],
  ["CC(C)CN1CC(C)C(=O)NC1=O (centres undefined)", "inactive"],
  ["Cc1c2cnccc2c(CO)c2[nH]c3ccccc3c12", "inactive"],
  ["Brc1cn2[n+](c1)[B-]n1cc(Br)c[n+]1[B-]2", "inactive"],
  ["CC(O)C1C(C(=O)O)C2C(C)OC(=O)C12 (centres undefined)", "inactive"],
  ["O=C1C2C3C=C4c5ccccc5N(c5ccccc5)C4([C@@H]2C(=O)N1c1ccc(F)cc1)[C@H]1C(=O)N(c2ccc(F)cc2)C(=O)[C@@H]31 (some centres undefined)", "inactive"],
  ["CC(=O)NC(Cc1c[nH]c2ccccc12)C(=O)O (centres undefined)", "inactive"],
  ["CC(=O)Nc1ccc(S(=O)(=O)NN)cc1", "inactive"],
  ["COC(=O)C(CO)NC(=O)C(CC(C)C)NC(=O)C(CC(C)C)NC(=O)OCc1ccccc1 (centres undefined)", "inactive"],
  ["Cc1ccccc1NC(=O)c1ccccc1Cl", "inactive"],
  ["CCOC(=O)Nc1ccc(C2OCCS2)cc1 (centres undefined)", "inactive"],
  ["CC(C)c1ccc(C(=O)OCC2CCCO2)cc1 (centres undefined)", "inactive"],
  ["CSc1nnc2c3ccccc3ccn12", "inactive"],
  ["Nc1nc(Br)nc2ncn(C3CC(O)C(CO)O3)c12 (centres undefined)", "inactive"],
  ["CN1C(=O)C=C(C=Nc2ccc(-c3ccccc3)cc2)C2CCCCC21 (centres undefined)", "inactive"],
  ["CCOC(=O)c1nc(SC)sc1NC(=O)c1ccc([N+](=O)[O-])cc1", "inactive"],
  ["Cc1ccc(S(=O)(=O)NN=C2CCCCC2)cc1", "inactive"],
  ["O=C(Nc1ccccc1CCl)Nc1ccccc1CCl", "inactive"],
  ["C[n+]1cc(N)cc2ccccc21", "inactive"],
  ["CCOC(=O)/C(=N\\O)C(C)(C)c1ccnc2ccccc12", "inactive"],
  ["O=C(CCBr)OCCC1CCCCC1", "inactive"],
  ["CC(c1ccc(N)cc1)n1cnc2c(Cl)ncnc21 (centres undefined)", "inactive"],
  ["C/C=C(/C)C(=O)O[C@H]1CC[N+]2([O-])CC=C(COC(=O)[C@@](O)([C@H](C)OC)C(C)(C)O)[C@H]12 (some centres undefined)", "inactive"],
  ["COc1cc(/C=N/N=C(\\N)NO)cc(Cl)c1O", "inactive"],
  ["CCOC(=O)/C=C(\\N)c1ccccc1", "inactive"],
  ["COc1ccccc1CCCO", "inactive"],
  ["Cc1cc(N(CCC#N)CCC#N)ccc1N=Nc1ccc(C(=O)O)cc1", "inactive"],
  ["CNC(=O)N(C)COC", "inactive"],
  ["COC(=O)C(=[N+]=[N-])C(=O)c1ccccc1[N+](=O)[O-]", "inactive"],
  ["CC(=O)/C=C(\\c1ccccc1)c1c(O)c2ccccc2oc1=O", "inactive"],
  ["Cc1ccc(N=C=C(c2ccc(Cl)cc2)c2ccc(Cl)cc2)cc1", "inactive"],
  ["O=c1nc2c(c(-c3ccc(Br)cc3)[nH]1)COC/C2=C\\c1ccc(Br)cc1", "inactive"],
  ["CCOC(=O)C(N)CSSCC(N)C(=O)OCC (centres undefined)", "inactive"]
]}
